tested on: AML patient cells (bulk, CD34+, CD34+CD38−, CD34+CD38+); assay: Viable cell count in AML patients' samples, flow cytometry; format: cell-based; conditions: Homo sapiens, 24 h, read-out: EC50 -Cell Count, 24 h, Alone, CD34+38−
pEC50: −log10 of the molar value.
Outcome measure: pEC50

[[record]]
molecule = "CC(C)[C@]12O[C@H]1[C@@H]1O[C@]13[C@]1(O[C@H]1C[C@H]1C4=C(CC[C@@]13C)C(=O)OC4)[C@@H]2O [Triptolide]"
result = 8.67


====

assay: in vivo; conditions: male, Sprague-Dawley, rat, iv, 0.3 mg/kg, Cmax range
Outcome measure: Cmax

[[record]]
compound = "CC(C)[C@]12O[C@H]1[C@@H]1O[C@]13[C@]1(O[C@H]1C[C@H]1C4=C(CC[C@@]13C)C(=O)OC4)[C@@H]2O [Triptolide]"
outcome_measure = "Cmax"
result = "18.2 to 130 ng/mL"

